ASSAY REMARKS: Clearance in dog with cassette dosing
Assay type: ADME, organism-based, Canis lupus familiaris
TEST CONDITIONS: in vivo
PROPERTY LABEL: clearance

                                  structure  property_label    data_value
0  COc1ccc(CNC(=O)c2nc(-c3cncc(C)c3)ncc2-c2ccccc2)nc1OC       clearance  47 mL/min/kg
1  COc1ccc(CNC(=O)c2cc(-c3cncc(C)c3)ncc2-c2nccs2)nc1OC       clearance  12 mL/min/kg
2  COc1ccc(CNC(=O)c2nc(-c3cncc(C)c3)ccc2-c2ccccc2)nc1OC       clearance  28 mL/min/kg

* * *

SYSTEM: Orexin/Hypocretin receptor type 1 (Homo sapiens, UniProt O43613, I408V)
Sequence (O43613 whole entry I408V): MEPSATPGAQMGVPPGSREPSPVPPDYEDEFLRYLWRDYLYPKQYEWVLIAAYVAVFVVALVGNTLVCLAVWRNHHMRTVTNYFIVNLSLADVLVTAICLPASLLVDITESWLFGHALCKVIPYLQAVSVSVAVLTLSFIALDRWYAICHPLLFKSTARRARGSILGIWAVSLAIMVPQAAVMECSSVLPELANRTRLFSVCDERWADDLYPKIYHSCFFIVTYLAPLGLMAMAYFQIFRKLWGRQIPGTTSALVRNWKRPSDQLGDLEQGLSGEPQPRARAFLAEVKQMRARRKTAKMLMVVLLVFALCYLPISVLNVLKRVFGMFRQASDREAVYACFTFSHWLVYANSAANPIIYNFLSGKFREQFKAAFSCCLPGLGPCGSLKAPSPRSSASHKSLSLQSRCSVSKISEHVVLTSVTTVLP
ASSAY REMARKS: Antagonist activity at human OX1R I408V mutant expressed in CHO cells assessed as inhibition of Ala-6,12-orexinA-induced effect after 5 mins by FLIPR assay
PROPERTY LABEL: IC50

>>> print(df.to_string())
                                  structure  property_label  data_value
0  COc1ccc(CNC(=O)c2cc(-c3cncc(C)c3)nnc2-c2ccccc2)nc1OC            IC50     > 10 µM
1  COc1ccc(CNC(=O)c2sc(-c3cncc(C)c3)nc2-c2cccc(F)c2)nc1OC            IC50     > 10 µM
2  COc1ccc(CNC(=O)c2cc(-c3cncc(C)c3)nc3onc(-c4ccccc4)c23)nc1OC            IC50     > 10 µM
3  COc1ccc(CNC(=O)c2nc(-c3cncc(C)c3)cnc2-c2ccccc2)nc1OC            IC50     > 20 µM
4  COc1ccc(CNC(=O)c2nc(-c3cncc(C)c3)ncc2-c2ccccc2)nc1OC            IC50     > 10 µM
